// provenance: PubChem BioAssay (NCI)

Tested on: MOLT-4 leukemia
Assay: NCI tumour cell line growth inhibition, 48 h
observable: TGI

Enquiry: Can you look up the measured TGI of [N-]=[N+]=NC1(Cc2ccccc2)C(=O)Nc2ccccc2C1=O (stereo not given) for me?
Return: > 100 µM

Enquiry: Can you look up the measured TGI of CCCCN(CCCC)CC(C(=O)Nc1ccc([N+](=O)[O-])cc1[N+](=O)[O-])/C(C)=N\NC(=O)c1ccncc1 (stereo not given) for me?
Return: > 100 µM

Enquiry: Can you look up the measured TGI of COC(=O)c1ccccc1/C=C1\Cc2ccc3c(c2C1=O)CCC3 for me?
Return: > 100 µM

Enquiry: Can you look up the measured TGI of COC(=O)NC1=Nc2ccccc2C(=O)NN1 for me?
Return: > 100 µM

Enquiry: Can you look up the measured TGI of O=C(O)CCC1C(=O)C2CCN1CC2 (stereo not given) for me?
Return: > 100 µM

Enquiry: Can you look up the measured TGI of c1ccc(C2=Nc3ccccc3N3CNN=C23)cc1 for me?
Return: > 100 µM

Enquiry: Can you look up the measured TGI of Cc1cc2c(cc1Cl)SC(NNC(=O)c1ccccc1)=NS2(=O)=O for me?
Return: > 10 µM

Enquiry: Can you look up the measured TGI of C=C1C2CCCC1C1(S(C)(=O)=O)CCCCC21O (stereo not given) for me?
Return: > 100 µM

Enquiry: Can you look up the measured TGI of Cc1cccc2c(N)c3cccc(C(=O)NCCNCCN)c3nc12 for me?
Return: > 96.1 µM

Enquiry: Can you look up the measured TGI of O=c1[nH]c(-c2ccccc2)nc2cc([N+](=O)[O-])c(/C(Cl)=C/c3ccccc3)cc12 for me?
Return: > 100 µM

Enquiry: Can you look up the measured TGI of O=S(=O)(Cc1ccccc1)c1nnc(S(=O)(=O)c2ccc(Cl)cc2)s1 for me?
Return: > 100 µM

Enquiry: Can you look up the measured TGI of CCc1n[nH]c(=O)n1-n1c(C)ccc1C for me?
Return: > 100 µM

Enquiry: Can you look up the measured TGI of COC(=O)C1=C(C)N(NC(N)=O)C2(N)N(NC(N)=O)C(C)=C(C(=O)OC)C12C#N (stereo not given) for me?
Return: > 100 µM

Enquiry: Can you look up the measured TGI of COC(=O)COc1ccccc1/C=C1/N=C(c2ccccc2)N(c2c(C)n(C)n(-c3ccccc3)c2=O)C1=O for me?
Return: > 100 µM

Enquiry: Can you look up the measured TGI of COC(=O)c1ccccc1C1CN=NC12Cc1cc3c(cc1C2=O)CCC3 (stereo not given) for me?
Return: > 100 µM

Enquiry: Can you look up the measured TGI of C[n+]1c(-c2ccc(/C=N\Nc3ccnc(N/N=C/c4ccc(-c5cn6ccsc6[n+]5C)cc4)n3)cc2)cn2ccsc21 for me?
Return: > 100 µM

Enquiry: Can you look up the measured TGI of CN(C)CC1CCCC/C1=N\OC(=O)c1ccccc1 (stereo not given) for me?
Return: > 100 µM

Enquiry: Can you look up the measured TGI of COC(=O)C1=C(C)NC(CF)=C(C(=O)OC)C1c1cccc2c(=O)c3ccccc3oc12 (stereo not given) for me?
Return: > 100 µM

Enquiry: Can you look up the measured TGI of Nc1nc(N)c(N=Nc2ccccc2)c(=O)[nH]1 for me?
Return: > 100 µM

Enquiry: Can you look up the measured TGI of Cc1ccc(NC(=O)CC(=O)N2N=C(N(c3ccccc3)c3ccccc3)CC2c2ccccc2)cc1 (stereo not given) for me?
Return: > 100 µM

Enquiry: Can you look up the measured TGI of CN(C)C/C=C/C(=O)Nc1ccc(C(=O)Nc2cccc(Nc3ncc(Cl)c(-c4c[nH]c5ccccc45)n3)c2)cc1 for me?
Return: > 100 µM

Enquiry: Can you look up the measured TGI of CC(C)=NC(C(=O)O)C(C)(C)S (stereo not given) for me?
Return: > 100 µM

Enquiry: Can you look up the measured TGI of CN1CCOC1(C)c1ccccc1 (stereo not given) for me?
Return: > 100 µM

Enquiry: Can you look up the measured TGI of COC1=CC(=O)C2=C(C1=O)[C@H]1CC[C@]3(C)C(=O)CC[C@H]3[C@@H]1CC2 for me?
Return: > 100 µM

Enquiry: Can you look up the measured TGI of Cc1ccc2c(-c3ccnc(Nc4cccc(C(F)(F)F)c4)n3)c(-c3ccccc3)nn2n1 for me?
Return: > 25 µM

---

Test system: UACC-62 melanoma
Assay: NCI tumour cell line growth inhibition, 48 h
Kindly supply the reported TGI values for the records listed here.

Enquiry: Can you look up the measured TGI of COc1ccc(NC(=O)CSc2nc(C)nc3c2sc(=S)n3-c2ccccc2)cc1 for me?
Return: > 10 µM

Enquiry: Can you look up the measured TGI of C=C(CN(C)C)C(=O)c1ccccc1 for me?
Return: 30.1 µM

Enquiry: Can you look up the measured TGI of Cc1cc2c(cc1Cl)SC(NNC(=O)c1ccccc1)=NS2(=O)=O for me?
Return: > 10 µM

---

Kindly supply the reported TGI values for the records listed here.
System: HOP-62 NSCLC
Assay: NCI tumour cell line growth inhibition, 48 h

Enquiry: Can you look up the measured TGI of COc1ccc(/C=N/NS(=O)(=O)c2ccc(/C=C3\NC(=O)NC3=O)cc2)cc1 for me?
Return: > 100 µM

Enquiry: Can you look up the measured TGI of COC1(OC)CCCCCCCCC(OC)(OC)CCCCCCCC1 for me?
Return: > 100 µM

Enquiry: Can you look up the measured TGI of COC(=O)C1=C(C)NC(CF)=C(C(=O)OC)C1c1cccc2c(=O)c3ccccc3oc12 (centres undefined) for me?
Return: > 100 µM

Enquiry: Can you look up the measured TGI of CCCCCCCCCCCCCCCC(=O)OCC1OC(OCCCC)[C@H](O[C@@H]2OC(C)C(OC(=O)CCC)C(O)C2O)C(O)C1O (some centres undefined) for me?
Return: 30.8 µM

---

Kindly supply the reported TGI values for the records listed here.
Tested on: HOP-62 NSCLC
Assay: NCI tumour cell line growth inhibition, 48 h

Enquiry: Can you look up the measured TGI of O=C(CNc1ccc([N+](=O)[O-])cc1)Nn1c(-c2ccccc2)nc2ccccc2c1=O for me?
Return: 16.5 µM

Enquiry: Can you look up the measured TGI of COC(=O)C1=C(N)C2=C(N)Oc3ccccc3C2CC1=C(C#N)C#N (stereo not drawn) for me?
Return: > 100 µM

Enquiry: Can you look up the measured TGI of O=C(O[C@H](/C=C/c1ccccc1)P1(=O)N(Cc2ccccc2)[C@H]2CCCC[C@@H]2N1Cc1ccccc1)c1ccccc1 for me?
Return: > 100 µM

Enquiry: Can you look up the measured TGI of COc1ccc(/C=C/c2cc(O)cc(OC3OC(CO)C(O)C(O)C3O)c2)cc1O (stereo not drawn) for me?
Return: > 100 µM

Enquiry: Can you look up the measured TGI of CC(C)(C)c1cc(Cc2ccc(S(C)(=O)=O)cc2)c(O)c(C(C)(C)C)c1 for me?
Return: 29.8 µM

Enquiry: Can you look up the measured TGI of CCCN(CCCC(NC(C)=O)C(=O)NCc1ccccc1)C(=O)N(C)N=O (stereo not drawn) for me?
Return: > 100 µM

Enquiry: Can you look up the measured TGI of CCP(C)(=O)CC for me?
Return: > 100 µM

Enquiry: Can you look up the measured TGI of C#CCC(O)c1ccc(OC)c(OCc2ccccc2)c1 (stereo not drawn) for me?
Return: > 100 µM

Enquiry: Can you look up the measured TGI of CC1=CP(=O)(OC(C)C)C=C(C)C1=C(Cl)Cl (stereo not drawn) for me?
Return: > 100 µM

Enquiry: Can you look up the measured TGI of COc1c(CC(C)=O)c2ccccc2n1C(C)=O for me?
Return: > 100 µM

Enquiry: Can you look up the measured TGI of CC12CCC(=O)N1[C@@H](c1ccccc1)[C@@H](c1ccccc1)O2 (stereo partly drawn) for me?
Return: > 100 µM

Enquiry: Can you look up the measured TGI of CC1CCC2C(C)C(OC(=O)CCC(=O)O)OC3OC4(C)CCC1C32OO4 (stereo not drawn) for me?
Return: > 100 µM

Enquiry: Can you look up the measured TGI of CN1CC=C(C#CC(C)(C)O)CC1 for me?
Return: > 37.5 µM

---

Kindly supply the reported TGI values for the records listed here.
Test system: SF-295 CNS
Assay: NCI tumour cell line growth inhibition, 48 h

Enquiry: Give TGI (SF-295 CNS) of the following compound: Cc1ccc(S(=O)(=O)NCCCSCCN)cc1
Return: > 100 µM

Enquiry: Give TGI (SF-295 CNS) of the following compound: O=C(CCl)N1CCN(c2ccccn2)CC1
Return: > 10 µM

Enquiry: Give TGI (SF-295 CNS) of the following compound: CC(=O)c1ccc(NC(=O)C(=O)CC(=O)c2sc(-n3nc(-c4ccccc4)cc3-c3ccccc3)nc2C)cc1
Return: > 100 µM

Enquiry: Give TGI (SF-295 CNS) of the following compound: c1ccc(C2(c3cc4ccccc4[nH]3)OCCO2)nc1
Return: > 100 µM

Enquiry: Give TGI (SF-295 CNS) of the following compound: CCOc1cc(CC[N+](C)(C)C)c2c(ccc3ccc(OC)c(OC)c32)c1OC
Return: > 100 µM

Enquiry: Give TGI (SF-295 CNS) of the following compound: CN1CCC(=C(c2ccc(Cl)cc2)c2ccccn2)CC1
Return: > 100 µM

Enquiry: Give TGI (SF-295 CNS) of the following compound: CCOC(=O)/C1=C(\C)N(Cc2ccccc2)C(=O)c2ccccc2C(=O)c2c(OC(C)=O)ccc(OC(C)=O)c21
Return: > 100 µM

Enquiry: Give TGI (SF-295 CNS) of the following compound: COC(=O)CSc1cc(Cl)c(C)cc1S(=O)(=O)Nc1n[nH]c(N)n1
Return: > 10 µM

Enquiry: Give TGI (SF-295 CNS) of the following compound: C=CC(=O)C#Cc1cnc(OC)nc1OC
Return: > 100 µM

Enquiry: Give TGI (SF-295 CNS) of the following compound: CN1CCOC1(C)c1ccccc1 (stereo unspecified)
Return: > 100 µM

Enquiry: Give TGI (SF-295 CNS) of the following compound: COc1ccc(NCc2cccc3c(=O)c4ccc(Cl)cc4oc23)cc1
Return: > 100 µM
